Molecular target: androgen receptor (AR) (Rattus norvegicus)
Construct: The minimum concentration of ^3H-MIB to saturate AR sites in the cytosol preparation was 1 nM; from tissue; host or cells: cytosol
Sequence (P15207 whole entry S389L): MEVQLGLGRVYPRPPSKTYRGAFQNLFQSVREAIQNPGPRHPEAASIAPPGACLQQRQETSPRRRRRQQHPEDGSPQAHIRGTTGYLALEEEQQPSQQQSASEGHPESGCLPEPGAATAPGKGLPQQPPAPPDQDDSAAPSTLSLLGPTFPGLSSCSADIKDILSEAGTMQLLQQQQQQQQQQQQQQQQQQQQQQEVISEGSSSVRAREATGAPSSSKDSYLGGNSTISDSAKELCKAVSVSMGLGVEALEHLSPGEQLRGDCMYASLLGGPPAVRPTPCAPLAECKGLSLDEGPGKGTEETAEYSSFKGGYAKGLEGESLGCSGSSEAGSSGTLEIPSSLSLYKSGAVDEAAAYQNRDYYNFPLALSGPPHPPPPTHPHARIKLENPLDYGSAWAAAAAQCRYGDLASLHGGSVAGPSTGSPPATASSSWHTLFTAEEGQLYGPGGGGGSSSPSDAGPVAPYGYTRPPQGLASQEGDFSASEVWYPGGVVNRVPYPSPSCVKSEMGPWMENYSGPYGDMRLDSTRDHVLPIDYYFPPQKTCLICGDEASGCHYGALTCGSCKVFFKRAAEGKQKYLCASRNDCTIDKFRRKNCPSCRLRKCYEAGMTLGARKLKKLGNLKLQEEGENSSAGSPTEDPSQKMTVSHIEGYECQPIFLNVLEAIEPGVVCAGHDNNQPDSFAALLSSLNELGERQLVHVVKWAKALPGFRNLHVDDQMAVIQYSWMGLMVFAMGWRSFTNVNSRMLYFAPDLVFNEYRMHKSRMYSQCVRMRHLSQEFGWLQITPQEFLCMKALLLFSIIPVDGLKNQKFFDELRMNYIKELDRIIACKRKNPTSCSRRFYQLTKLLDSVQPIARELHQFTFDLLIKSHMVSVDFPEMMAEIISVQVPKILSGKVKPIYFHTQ
Assay: AR competitive binding with 3H-mibolerone in cytosol
outcome_measure: Ki (nM)
Give the value in nM but do not write nM after it.

Identify the reported Ki for the following entry. C[C@](O)(CS(=O)(=O)c1ccc(I)cc1)C(=O)Nc1ccc(C#N)c(C(F)(F)F)c1 [Compound 2] 3.1
